study.system: DEN2-NS1 (NAD2) (Dengue virus 2 Thailand/16681/84) (UniProt P29990)
Sequence: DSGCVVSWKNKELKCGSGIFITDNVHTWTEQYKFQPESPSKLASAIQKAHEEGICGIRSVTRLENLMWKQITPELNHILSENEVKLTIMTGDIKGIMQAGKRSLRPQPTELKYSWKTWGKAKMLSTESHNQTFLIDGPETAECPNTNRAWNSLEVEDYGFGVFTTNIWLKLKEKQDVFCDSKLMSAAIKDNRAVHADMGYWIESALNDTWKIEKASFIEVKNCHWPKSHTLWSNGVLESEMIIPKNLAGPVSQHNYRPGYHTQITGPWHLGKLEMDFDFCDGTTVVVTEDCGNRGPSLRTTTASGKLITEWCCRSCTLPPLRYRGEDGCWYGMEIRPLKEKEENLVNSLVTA
protocol.summary: SPR
run.parameters: N1,N2 = Ds; N3 = diol-Pa
measure.name: Kd (nM)
Numbers only; they are read as nM.

GACGGTCTACTGGTCCGNCTGGGAACAAGNGGCGGGAGGGANGGGTGTGGGTGCGACAAGCGGAGTAGTTAGACCGTCCGCGTAGCG [D2-1d-87h] : 0.105
GGCTGGTCCGNCTGGGAACAAGNGGCGGGAGGGANGGGTGTGGGTGCGACAAGCGGACCAGCCCGCGTAGCG [D2-1d-72h (AptD2)] : 0.104

Note: attention shifts to another entry.
Query: Kd lookup needed for TTTTCGCACTCCATGATATGGTCTACTGGTCCGNCTGGGAACAAGNGGCGGGAGGGANGGGTGTGGGTGCGACAAGCGGAGTAGTTAGACCGTCAAA [D2-1d-97] , thanks.
Reply: 0.114
